# Test system: MDA-N
# Run description: NCI tumour cell line growth inhibition, 48 h
Observation type: TGI

Molecule	Observation type	Measured result
COCCOCCOC1=CC(=O)c2c(O)ccc(O)c2C1=O	TGI	0.289 µM
NC(=O)N/N=C1\CC2C3CC4C2C4C13 (stereo unspecified)	TGI	> 100 µM
Cc1ccc(/C=C2\Cc3c(C)cc(C)cc3C2=O)c(C(=O)O)c1	TGI	> 100 µM
O=c1[nH]c(Nc2cccc(CO)c2)nc2nc[nH]c12	TGI	> 100 µM
CNC(=O)CCCNC(=O)CCCC(=O)N(C)C	TGI	> 100 µM
CC(C)OC(=O)OCSc1ccccc1N=Cc1cccc([N+](=O)[O-])c1	TGI	> 10 µM
CCOC(=O)/C=C(\C(=O)OCC)n1ccc(=O)n(Cc2cn(COCCOC(C)=O)nn2)c1=O	TGI	> 100 µM
O=c1cc(-c2ccccc2)oc2c(-c3cc(Cl)cc4c(=O)cc(-c5ccccc5)oc34)cc(Cl)cc12	TGI	> 100 µM
CCOC(=O)C#Cc1ccccc1	TGI	45 µM
COc1ccc(-c2cc(-c3ccccc3)[nH]c(=S)c2C#N)cc1	TGI	> 100 µM

Note: attention shifts to another entry.
stdin: For the molecule CCCCn1c(-c2ccc([N+](=O)[O-])cc2)cs/c1=N/N=C1\C(=O)Nc2ccc(Br)cc21 , what TGI is on record?
stdout: 45.2 µM

* * *

This listing pairs compounds with measured TGI.
# Tested on: KM12 colon
# Run description: NCI tumour cell line growth inhibition, 48 h

Compound	TGI
CO[C@@H]1O[C@H](C(=O)c2ccccc2)[C@H]2OC(C)(C)O[C@@H]12	> 100 µM
C[C@H]1CCCC(O)C(O)[C@@H]2C[C@H](O[Si](C)(C)C(C)(C)C)C[C@H]2[C@H](O[Si](C)(C)C(C)(C)C)C(O)C(O)C(=O)O1 (some centres undefined)	> 100 µM
CC(=O)N1CCC2(c3ccccc3N(C(C)=O)C2c2ccc(O)cc2)C1C(=O)O (centres undefined)	> 100 µM
O=c1oc2ccc(I)cc2c(=O)n1-c1ccc(Cl)cc1F	5.39 µM
C=C1C(O)CC[C@]2(C)C1C1OC(C)(C)O[C@]13CC(=O)C(C)=C([C@H]1OC(C)(C)OC12)C3(C)C (some centres undefined)	> 100 µM
COC1CC(OC2CCC3(C)C(=CCC4C3C(OC(C)=O)C(OC(=O)CC(C)C)C3(C)C(C(C)=O)CCC43O)C2)OC(C)C1OC1CC(OC)C(OC2CC(OC)C(OC3OC(C)C(OC4OC(CO)C(O)C(O)C4O)C(OC)C3O)C(C)O2)C(C)O1 (centres undefined)	> 75 µM
O=S(=O)(CCCl)c1ccc(Cl)cc1	31.4 µM
CCNC(=O)c1noc(-c2cc(C(C)C)c(O)cc2O)c1-c1ccc(CN2CCOCC2)cc1	0.0741 µM
COc1ccc(C(=O)NCCN(C)C)c2nc3ccccc3nc12	32.4 µM
c1c[nH]c(CN2CCOCC2)n1	> 100 µM

stdin: For the compound COc1ccc(OC)c(Cn2cc3c(c2-c2ccccc2)CCc2cnoc2-3)c1 , what TGI is on record?
stdout: > 100 µM

* * *

This listing pairs molecules with measured TGI.
# System: MALME-3M melanoma
# Run description: NCI tumour cell line growth inhibition, 48 h
Just the number in µM, nothing appended.

Worked set:
Compound string	Observation type	Measured result
CCOC(=O)c1nc2cc(C(F)(F)F)ccc2nc1Nc1ccc(C(=O)NC(C(=O)OCC)C(=O)OCC)cc1	TGI	40.3
NS(=O)(=O)c1cccc(NC(=S)NC(=O)Nc2ccc(Cl)c(Cl)c2)c1	TGI	29.4
O=c1cc(-c2ccccc2)oc2c(-c3cc(Cl)cc4c(=O)cc(-c5ccccc5)oc34)cc(Cl)cc12	TGI	75.8

stdin: So what TGI did O=C1CCCCN1CCCCC#Cc1cccc(C#Cc2cccnc2)c1 get with MALME-3M melanoma?
stdout: 79.1

* * *

# Test system: DMS 273 small cell lung
# Run description: NCI tumour cell line growth inhibition, 48 h
Observation type: TGI

Compound	Subject of test	Observation type	Measured result
Cc1nc(C(N)=S)sc1C(=O)/C=C/c1c(O)ccc2ccccc12	DMS 273 small cell lung	TGI	> 100 µM
C=C(C)C1C/C=C(/C)CCCC2(CCC3=C(CC(C(=C)C)C/C=C(/C)CCC3)O2)C(=O)C1 (stereo not given)	DMS 273 small cell lung	TGI	> 100 µM
COC(=O)C1(C(=O)OC)CC(=O)c2cc3c(cc2-c2c(cc(OC)c(OC)c2OC)C1)OCO3	DMS 273 small cell lung	TGI	> 211 µM
FC(F)(F)c1cc(C2SCc3nc4ccccc4n32)cc(C(F)(F)F)c1 (stereo not given)	DMS 273 small cell lung	TGI	> 100 µM

Note: attention shifts to another entry.
stdin: So what TGI did Cc1c(C(=O)O)oc2ccc([N+](=O)[O-])cc12 get with DMS 273 small cell lung?
stdout: > 100 µM

* * *

# Tested on: SN12C renal
# Run description: NCI tumour cell line growth inhibition, 48 h
Observation type: TGI

Worked set:
Compound	Subject of test	Measured result
O=c1cc(-c2cc(O)c(O)c(-c3c(O)cc4oc(-c5ccc(O)c(O)c5)cc(=O)c4c3O)c2)oc2cc(O)cc(O)c12	SN12C renal	> 25 µM
O=C1CSC2=NC3=C(COC/C3=C\c3ccc(Br)cc3)C(c3ccc(Br)cc3)N12 (configuration not stated)	SN12C renal	> 100 µM
CC(=O)OC1CCC2C3CCc4c(C)ccc(OS(=O)(=O)c5ccccc5)c4C3CCC12C (configuration not stated)	SN12C renal	> 100 µM
CCOC(=O)NC(=O)c1cn(CCN2CCN(C(=O)CCCCCCCCCCC(=O)N3CCN(CCn4cc(C(=O)NC(=O)OCC)c(=O)[nH]c4=O)CC3)CC2)c(=O)[nH]c1=O	SN12C renal	> 100 µM

stdin: For the compound CN1/C(=C\C=C\C2=[N+](C)c3ccccc3C2(C)C)C(C)(C)c2ccccc21 , what TGI is on record?
stdout: 1.11 µM

stdin: For the compound COc1cc(NC(C)=O)ccc1C(=O)NN1C(=O)/C(=C/c2ccco2)N=C1c1ccccc1 , what TGI is on record?
stdout: > 50 µM

stdin: For the compound CCNC(=O)c1noc(-c2cc(C(C)C)c(O)cc2O)c1-c1ccc(CN2CCOCC2)cc1 , what TGI is on record?
stdout: > 100 µM

stdin: For the compound COC1=C(C)C(=O)c2c(c(COC(N)=O)c3n2CC(OC(C)=O)C3OC(C)=O)C1=O (configuration not stated) , what TGI is on record?
stdout: 1.09 µM

stdin: For the compound O=C(Nc1noc(-c2ccccc2)n1)c1ccccc1CNc1noc(-c2ccccc2)n1 , what TGI is on record?
stdout: > 100 µM

stdin: For the compound N#Cc1c(-c2ccccc2)cc(-c2ccc(Cl)cc2)[nH]c1=S , what TGI is on record?
stdout: > 100 µM

stdin: For the compound COC(=O)C1=Nc2c(C)nn(-c3ccccc3)c2N=C(c2ccccc2)C1 , what TGI is on record?
stdout: > 10 µM

stdin: For the compound O=C(/C=C/c1ccccc1)CC(=O)CCC(=O)Nc1ccc(Cl)cc1 , what TGI is on record?
stdout: > 100 µM

* * *

# System: HOP-18 NSCLC
# Run description: NCI tumour cell line growth inhibition, 48 h
This listing pairs compounds with measured TGI.

Compound	TGI
CCOC(=O)c1cc2c3c(c(O)c(OC)c2s1)N(C(=O)c1cc2c4c(c(O)c(OC)c2s1)N(C(C)=O)CC4)CC3	> 100 µM
O=c1oc2ccccc2[n+]([O-])c1-c1ccccc1	> 100 µM

stdin: For the compound CC(C)(C)C(=O)[CH-]C(=O)C(C)(C)C.CC(C)(C)C(=O)[CH-]C(=O)C(C)(C)C.CN(C)c1ccc([O-])cc1.CN(C)c1ccc([O-])cc1.[Ti+4] , what TGI is on record?
stdout: > 100 µM

stdin: For the compound CN(C)C(=S)/N=c1\ssc(=S)n1Cc1ccncc1 , what TGI is on record?
stdout: 57.6 µM

stdin: For the compound Cn1c2c(c3ccccc31)CCN(CCN1CCN(c3cccc(Cl)c3)CC1)C2=O , what TGI is on record?
stdout: > 100 µM

stdin: For the compound C[N+](C)(C)CC1CCCCC1O (stereo unspecified) , what TGI is on record?
stdout: > 100 µM

stdin: For the compound Cc1nc(C(N)=S)sc1C(=O)/C=C/c1c(O)ccc2ccccc12 , what TGI is on record?
stdout: > 100 µM

stdin: For the compound O=[N+]([O-])c1ccc(-c2ccc(-c3csc(Nc4ccccc4)n3)o2)cc1 , what TGI is on record?
stdout: 29.4 µM

stdin: For the compound CC(=O)OCc1c(O)c2c(c(O)c1COC(C)=O)C(=O)C=CC2=O , what TGI is on record?
stdout: 35.8 µM

stdin: For the compound C=C(CN(C)C)C(=O)c1ccccc1[N+](=O)[O-] , what TGI is on record?
stdout: 32.7 µM

stdin: For the compound CCNC(=O)COc1ccc(Cl)cc1Cl , what TGI is on record?
stdout: > 100 µM
